Hey, just so you know, these numbers are from PubChem BioAssay (Tox21).

- EXPERIMENTAL PROTOCOL: qHTS assay to identify small molecule antagonists of the estrogen receptor alpha (ER-alpha) signaling pathway - cell viability counter screen (AID 743074);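 also: HEK293 cells carrying ER-alpha-UAS-bla reporter stimulated with 17beta-estradiol; nearly all actives have a fitted effect of over 45% in size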
- EXPERIMENTAL PARAMETERS: ERalpha-bla HEK293 viability, CellTiter-Glo luminescence, 18 h; series mostly up to 69.4 µM
Records with an inconclusive call do not appear. The source made the active and inactive calls. Calls follow the shape of the full dose curve.
Classes to choose from: active, inactive

Known results for compounds:
O=C1c2c(O)ccc([N+](=O)[O-])c2C(=O)c2c([N+](=O)[O-])ccc(O)c21    active
CC(=O)Oc1ccc(C2(c3ccc(OC(C)=O)cc3)C(=O)Nc3ccccc32)cc1    inactive
CCCCCCCCCCCCCCNCCO    inactive

Write down the call the test reported for this compound. Item: `c1ccc(Sc2ccccc2)cc1`
inactive

Write down the call the test reported for this compound. Item: `Clc1ccccc1CN1CCc2sccc2C1`
inactive

Write down the call the test reported for this compound. Item: CCCC(CC)CCCCCCCN (stereo not given)
inactive

Write down the call the test reported for this compound. Item: `O=C(c1ccccc1)c1cc(Cl)ccc1O`
inactive

Write down the call the test reported for this compound. Item: `CC(C)N=C(N)/N=C(\N)Nc1ccc(Cl)cc1`
inactive
